Values from patent US6544989B2

System: Erysiphe graminis f.sp. tritici
test name: Fungicidal test, Erysiphe graminis f.sp. tritici (ERYSGT) on wheat, PRCO
Type: in vivo
condition set: 6 hr Prot/Foir; METHOD 1 (values marked *)
Marks after values point to notes of the source that are not given here.
quantity: ERYSGT 6 hr Prot/Foir PRCO

Cc1nsc(NC(=O)Cc2ccc3oc(CC(C)(C)C)nc3c2)c1Cl [Compound 15(A3)]: 100*
Cc1nc2cc(CC(=O)Nc3snc(C)c3Cl)ccc2o1 [2(A3)]: 100*
CCCc1nc2cc(CC(=O)Nc3snc(C)c3Cl)ccc2o1 [4(A3)]: 100*
Cc1nsc(NC(=O)Cc2ccc3oc(C(C)(C)C)nc3c2)c1Cl [9(A3)]: 100*
Cc1nsc(NC(=O)Cc2ccc3oc(-c4ccc(Cl)cc4Cl)nc3c2)c1Cl [257(A3)]: 0*

// switching to the query compound
Under Erysiphe graminis f.sp. tritici, report ERYSGT 6 hr Prot/Foir PRCO for Cc1nsc(NC(=O)Cc2ccc3oc(-c4ccccc4)nc3c2)c1Cl [248(A3)]
0*

* * *

System: Musca domestica
condition set: 500 ppm by weight; knockdown assessed 15 minutes after treatment
Each item that follows carries a reported MUSCDO AC = Musca domestica (knockdown), score.

Cc1nsc(NC(=O)Cc2ccc3nc(C(C)(C)C)[nH]c3c2)c1Cl [9(A43)]: 0 (0 indicates less than 40% mortality)
CSc1nc2cc(CC(=O)Nc3snc(C)c3Cl)ccc2o1 [220(A3)]: 5 (5 indicates 40-79% mortality)
Cc1nsc(NC(=O)Cc2ccc3oc(CC(C)(C)C)nc3c2)c1Br [15(A4)]: 9 (9 indicates 80-100% mortality)
COCN(C(=O)Cc1ccc2oc(C)nc2c1)c1snc(C)c1Cl [2(K3)]: 9 (9 indicates 80-100% mortality)
Cc1nsc(NC(=O)Cc2ccc3oc(-c4cc(Cl)cc(Cl)c4)nc3c2)c1Cl [261(A3)]: 0 (0 indicates less than 40% mortality)

Provide one value: measured MUSCDO AC = Musca domestica (knockdown), score of Cc1nc2cc(CC(=O)N(C)c3snc(C)c3Cl)ccc2o1 [2(B3)]
9 (9 indicates 80-100% mortality)

* * *

Test system: Meloidogyne incognita
test name: Nematode test, J2 infective juveniles of Meloidogyne incognita, mortality
condition set: 12.5 ppm; J2 infective juveniles suspended in solution; mortality after three days
quantity: MELGIN = Meloidogyne incognita, grading of mortality (score)

Cc1nsc(NC(=O)Cc2ccc3oc(SC(C)C)nc3c2)c1Cl: 0 (0 indicates less than 40% mortality)
COc1ccccc1-c1nc2cc(CC(=O)Nc3snc(C)c3Cl)ccc2o1: 0 (0 indicates less than 40% mortality)
Cc1nsc(NC(=O)Cc2ccc3oc(NC(C)(C)C)nc3c2)c1Cl: 0 (0 indicates less than 40% mortality)

Provide one value: measured MELGIN = Meloidogyne incognita, grading of mortality (score) of `Cc1nsc(NC(=O)Cc2ccc3oc(-c4ccccc4)nc3c2)c1Cl`
0 (0 indicates less than 40% mortality)

Provide one value: measured MELGIN = Meloidogyne incognita, grading of mortality (score) of `CCCc1nc2cc(CC(=O)N(C)c3snc(C)c3Cl)ccc2o1`
0 (0 indicates less than 40% mortality)

Provide one value: measured MELGIN = Meloidogyne incognita, grading of mortality (score) of `CSc1nc2cc(CC(=O)Nc3snc(C)c3Cl)ccc2o1`
0 (0 indicates less than 40% mortality)

Provide one value: measured MELGIN = Meloidogyne incognita, grading of mortality (score) of Cc1nsc(NC(=O)Cc2ccc3oc(C(C)Cl)nc3c2)c1Cl (racemic)
0 (0 indicates less than 40% mortality)

Provide one value: measured MELGIN = Meloidogyne incognita, grading of mortality (score) of `Cc1nsc(NC(=O)Cc2ccc3oc(C(F)(F)C(F)(F)C(F)(F)F)nc3c2)c1Cl`
0 (0 indicates less than 40% mortality)

Provide one value: measured MELGIN = Meloidogyne incognita, grading of mortality (score) of `CCOCN(C(=O)Cc1ccc2oc(C)nc2c1)c1snc(C)c1Cl`
0 (0 indicates less than 40% mortality)

Provide one value: measured MELGIN = Meloidogyne incognita, grading of mortality (score) of `Cc1nsc(NC(=O)Cc2ccc3oc(O)nc3c2)c1Cl`
0 (0 indicates less than 40% mortality)

Provide one value: measured MELGIN = Meloidogyne incognita, grading of mortality (score) of `Cc1nsc(NC(=O)Cc2ccc3oc(C(C)C)nc3c2)c1Cl`
0 (0 indicates less than 40% mortality)

Provide one value: measured MELGIN = Meloidogyne incognita, grading of mortality (score) of `COCN(C(=O)Cc1ccc2oc(C)nc2c1)c1snc(C)c1Cl`
0 (0 indicates less than 40% mortality)

Provide one value: measured MELGIN = Meloidogyne incognita, grading of mortality (score) of `Cc1nsc(NC(=O)Cc2ccc3oc(SCC#N)nc3c2)c1Cl`
0 (0 indicates less than 40% mortality)

Provide one value: measured MELGIN = Meloidogyne incognita, grading of mortality (score) of `CCN(C)c1nc2cc(CC(=O)Nc3snc(C)c3Cl)ccc2o1`
0 (0 indicates less than 40% mortality)

Provide one value: measured MELGIN = Meloidogyne incognita, grading of mortality (score) of C=CCN(C(=O)Cc1ccc2oc(CCC)nc2c1)c1snc(C)c1Cl [4(E3)]
0 (0 indicates less than 40% mortality)

Provide one value: measured MELGIN = Meloidogyne incognita, grading of mortality (score) of CCC(C)c1nc2cc(CC(=O)Nc3snc(C)c3Cl)ccc2o1 (centres unmarked)
0 (0 indicates less than 40% mortality)

Provide one value: measured MELGIN = Meloidogyne incognita, grading of mortality (score) of `CSCCc1nc2cc(CC(=O)Nc3snc(C)c3Cl)ccc2o1`
5 (5 indicates 40-79% mortality)

* * *

Test system: Pyricularia oryzae
Type: in vivo
condition set: METHOD 2 (unbanded)
quantity: PYRIOR 1 d Prot/Foir PRCO
Lab note: record the figure alone, no unit after it.

Cc1nc2cc(CC(=O)Nc3snc(C)c3Cl)ccc2s1: 47
COCc1nc2cc(CC(=O)Nc3snc(C)c3Cl)ccc2o1: 93
CCC(CC)c1nc2cc(CC(=O)Nc3snc(C)c3Cl)ccc2o1: 96
CCSc1nc2cc(CC(=O)Nc3snc(C)c3Cl)ccc2o1: 93
CCOc1nc2cc(CC(=O)Nc3snc(C)c3Cl)ccc2o1: 96

Provide one value: measured PYRIOR 1 d Prot/Foir PRCO of `Cc1nsc(NC(=O)Cc2ccc3oc(CF)nc3c2)c1Cl`
100

Provide one value: measured PYRIOR 1 d Prot/Foir PRCO of `Cc1nsc(NC(=O)Cc2ccc3oc(-c4ccc(C(C)(C)C)cc4)nc3c2)c1Cl`
46

Provide one value: measured PYRIOR 1 d Prot/Foir PRCO of `CSCCc1nc2cc(CC(=O)Nc3snc(C)c3Cl)ccc2o1`
19

Provide one value: measured PYRIOR 1 d Prot/Foir PRCO of `Cc1nc2cc(CC(=O)Nc3snc(C)c3C#N)ccc2o1`
31

Provide one value: measured PYRIOR 1 d Prot/Foir PRCO of `Cc1nc2cc(CC(=O)Nc3snc(C)c3Br)ccc2o1`
99

Provide one value: measured PYRIOR 1 d Prot/Foir PRCO of `Cc1nc2ccc(CC(=O)Nc3snc(C)c3Cl)cc2[nH]1`
48

Provide one value: measured PYRIOR 1 d Prot/Foir PRCO of CCC(Cl)c1nc2cc(CC(=O)Nc3snc(C)c3Cl)ccc2o1 (racemic)
96

* * *

System: Venturia inaequalis
test name: Fungicidal test, Venturia inaequalis (VENTIN) on apples, PRCO
Assay type: in vivo
condition set: METHOD 2 (unbanded)
Each item that follows carries a reported VENTIN 1 d Prot/Foir PRCO.
Lab note: record the figure alone, no unit after it.

Here is how some compounds turned out for VENTIN 1 d Prot/Foir PRCO.
CCSc1nc2cc(CC(=O)Nc3snc(C)c3Cl)ccc2o1: 25
Cc1nsc(NC(=O)Cc2ccc3nc(CC(C)(C)C)oc3c2)c1Cl: 100
Cc1nsc(NC(=O)Cc2ccc3oc(C(F)(F)C(F)(F)C(F)(F)F)nc3c2)c1Cl: −8

Provide one value: measured VENTIN 1 d Prot/Foir PRCO of `Cc1nsc(NC(=O)Cc2ccc3oc(CC4CC4)nc3c2)c1Cl`
50

Provide one value: measured VENTIN 1 d Prot/Foir PRCO of `Cc1nsc(NC(=O)Cc2ccc3oc(C4CCCCC4)nc3c2)c1Cl`
70

Provide one value: measured VENTIN 1 d Prot/Foir PRCO of `Cc1nsc(NC(=O)Cc2ccc3oc(C(c4ccccc4)c4ccccc4)nc3c2)c1Cl`
13

* * *

Tested on: Plasmopara viticola
test name: Fungicidal test, Plasmopara viticola (PLASVI) on vines, PRCO
Type: in vivo
condition set: METHOD 1 (values marked *)
Marks after values point to notes of the source that are not given here.
Each item that follows carries a reported PLASVI 1 d Prot/Foir PRCO.

Cc1nsc(NC(=O)Cc2ccc3oc(-c4ccc(Cl)cc4Cl)nc3c2)c1Cl: 79*
Cc1nc2cc(CC(=O)Nc3snc(C)c3Cl)ccc2o1: 0*
Cc1nsc(NC(=O)Cc2ccc3oc(-c4ccccc4)nc3c2)c1Cl: 97*

// switching to the query molecule
Provide one value: measured PLASVI 1 d Prot/Foir PRCO of `Cc1nsc(NC(=O)Cc2ccc3oc(C(C)(C)C)nc3c2)c1Cl`
100*
